Source listed as PubChem BioAssay AID540269.

TARGET SYSTEM: glucose-6-phosphate dehydrogenase-6-phosphogluconolactonase (Plasmodium falciparum 3D7)
ASSAY INFO: PfG6PD enzyme inhibitors, kinetic NADPH readout, dose response, orthogonal assay, biochemical, kinetic NADPH detection (AID 540269)
CONDITION DETAILS: purified PfG6PD-6PGL
Calls of active or inactive are those of the source. How the calls were made is not given here.
Write down the outcome that applies. Available outcomes: T (active), F (inactive)

Worked cases, answers included:
{"columns": ["COMPOUND", "DISCRETE LABEL"],
 "data": [
  ["COc1ccc(CCn2c(NN=C3CCCC3)nc3c2c(=O)[nH]c(=O)n3C)cc1", "F"],
  ["C=C1C(=O)O[C@@H]2C[C@@H](C)[C@@H]3C=CC(=O)[C@@]3(C)[C@@H](OC(=O)CC(=O)O[C@H]3[C@@H]4C(=C)C(=O)O[C@@H]4C[C@@H](C)[C@@H]4C=CC(=O)[C@]43C)[C@H]12", "F"],
  ["COc1ccc(C(=O)c2c(C(F)(F)F)oc3c2C(=O)c2ccccc2C3=O)cc1", "F"],
  ["Cc1ccc(S(=O)c2ccc([N+](=O)[O-])c3nonc23)cc1 (stereo unspecified)", "F"],
  ["COc1cc(N)c2ncccc2c1SC", "T"],
  ["Cn1sc2ccccc2c1=O", "T"]
]}

Shift focus to the following entry.
Problem: GET /call?item= CCN1CCCC1CNC(=O)c1ccc2c(c1)NC(=O)/C(=C\c1ccccc1Cl)S2 (stereo unspecified) returns the recorded outcome of this test.
Result: T
